Provenance of the data: patent US12398154B2

target: KRas G12R (Homo sapiens, UniProt P01116, G12R); assay: biochemical
Sequence (P01116 1-169 isoform P01116-2 G12R): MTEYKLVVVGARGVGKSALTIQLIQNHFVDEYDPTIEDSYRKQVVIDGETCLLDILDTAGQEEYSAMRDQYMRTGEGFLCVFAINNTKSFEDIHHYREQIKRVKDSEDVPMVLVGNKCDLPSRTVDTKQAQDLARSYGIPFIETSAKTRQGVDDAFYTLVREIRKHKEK
readout.name: IC50 (µM)

molecule	target.desc	value.modifier	reading
CN(C)c1cc2n(n1)CCCN(c1nc(OCC34CCCN3CCC4)nc3c(F)c(-c4cccc5cccc(F)c45)ncc13)C2 [Example 264]	KRas G12R (Homo sapiens, UniProt P01116, G12R)	=	9.86
CCc1c(F)ccc2cc(O)cc(-c3ncc4c(NCCCc5cc[nH]n5)nc(OC[C@@]56CCCN5C[C@H](F)C6)nc4c3F)c12 [Example 135]	KRas G12R (Homo sapiens, UniProt P01116, G12R)	=	0.003
Cc1c(N)nn2c1CN(c1nc(OCC34CCCN3CCC4)nc3c(F)c(-c4cccc5cccc(F)c45)ncc13)CCC2 [Example 278]	KRas G12R (Homo sapiens, UniProt P01116, G12R)	=	1.86
NC(=O)C(O)CNc1nc(OCC23CCCN2CCC3)nc2c(F)c(-c3cccc4cccc(Cl)c34)ncc12 (stereo not drawn) [Example 475]	KRas G12R (Homo sapiens, UniProt P01116, G12R)	=	2.62
CCc1c(F)ccc2cc(O)cc(-c3ncc4c(N5CCN6C(=O)NC(=O)C6C5)nc(OC[C@@]56CCCN5C[C@H](F)C6)nc4c3F)c12 (stereo partly drawn) [Example 381]	KRas G12R (Homo sapiens, UniProt P01116, G12R)	=	0.021
C#Cc1c(F)ccc2cc(O)cc(-c3ncc4c(N5CCCn6nc(C(=O)N(C)C)cc6C5)nc(OC[C@@]56CCCN5C[C@H](F)C6)nc4c3F)c12 [Example 398]	KRas G12R (Homo sapiens, UniProt P01116, G12R)	≤	0.002

---

target: KRas G13D (Homo sapiens, UniProt P01116, G13D); construct: Biotinylated KRas (corresponding to amino acids 1-169, produced at Accelegan Inc.); biotin (biotinylated); purchased Accelegan Inc; assay: KRas binding assay (TR-FRET displacement);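 also: One-hour room temperature incubation before TR-FRET reading, IC50 from a four-parameter curve fit to percent-of-control data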
Sequence (P01116 1-169 isoform P01116-2 G13D): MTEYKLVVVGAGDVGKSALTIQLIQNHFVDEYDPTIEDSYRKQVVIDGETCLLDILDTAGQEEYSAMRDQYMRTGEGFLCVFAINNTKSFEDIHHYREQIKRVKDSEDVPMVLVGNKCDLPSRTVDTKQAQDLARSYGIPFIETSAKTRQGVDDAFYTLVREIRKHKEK
As shown below, each of these molecules has a reported IC50 value.

molecule	value.modifier	IC50, nM
O=C1CC2(CCCN(c3nc(OCC45CCCN4CCC5)nc4c(F)c(-c5cccc6cccc(F)c56)ncc34)C2)N1 (centres unmarked) [Example 97]	=	297
O=C1NC2(CCN(c3nc(OCC45CCCN4CCC5)nc4c(F)c(-c5cccc6cccc(F)c56)ncc34)CC2)CO1 [Example 224]	=	4830
CS(=O)(=O)C1CCCCN(c2nc(OCC34CCCN3CCC4)nc3c(F)c(-c4cccc5cccc(F)c45)ncc23)C1 (centres unmarked) [Example 250]	=	3510
Fc1c(-c2cccc3cccc(F)c23)ncc2c(Nc3ccc4cn[nH]c4c3)nc(OCC34CCCN3CCC4)nc12 [Example 218]	≥	100000
OCC1COCCN(c2nc(OCC34CCCN3CCC4)nc3c(F)c(-c4cccc5cccc(F)c45)ncc23)C1 (centres unmarked) [Example 83]	=	1890
Fc1c(-c2cccc3cccc(F)c23)ncc2c(N3CCCC4(CC4)C3)nc(OCC34CCCN3CCC4)nc12 [Example 114]	=	29900
NC(=O)C1CCCN(c2nc(OCC34CCCN3CCC4)nc3c(F)c(-c4cccc5cccc(F)c45)ncc23)C1 (centres unmarked) [Example 86]	=	3000
CCc1c(F)ccc2cc(O)cc(-c3ncc4c(N5CCCC6(CC(=O)N6)C5)nc(OC[C@@]56CCCN5C[C@H](F)C6)nc4c3F)c12 (some centres unmarked) [Example 57]	=	3
OC12CC(Nc3nc(OCC45CCCN4CCC5)nc4c(F)c(-c5cccc6cccc(F)c56)ncc34)(C1)C2 [Example 90]	=	8210
Fc1c(-c2cccc3cccc(F)c23)ncc2c(NCc3ccc4nonc4c3)nc(OCC34CCCN3CCC4)nc12 [Example 125]	=	29100
Fc1c(-c2cccc3cccc(F)c23)ncc2c(NCCCn3cnnn3)nc(OCC34CCCN3CCC4)nc12 [Example 119]	=	17200

---

As shown below, each of these compounds has a reported pIC50 value.
target: KRas G12R (Homo sapiens, UniProt P01116, G12R); test: biochemical;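 also: TR-FRET displacement assay of compound binding to KRas, read after one hour at room temperature, potency from a four-parameter fit of percent-of-control values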
pIC50: −log10 of the molar value.
readout.name: pIC50

>>> df
                                    compound  reading
 0  CCc1c(F)ccc2cc(O)cc(-c3ncc4c(NCc5cc(C(=O)N(C)C)nn5C)nc(OC[C@@]56CCCN5C[C@H](F)C6)nc4c3F)c12   ≥ 8.70
 1  CCc1c(F)ccc2cc(O)cc(-c3ncc4c(N5CC(c6ccncc6)C5)nc(OC[C@@]56CCCN5C[C@H](F)C6)nc4c3F)c12   ≥ 8.70
 2  C#Cc1c(F)ccc2cc(O)cc(-c3ncc4c(N5CCCC6(CC(=O)N6)C5)nc(OC[C@@]56CCCN5C[C@H](F)C6)nc4c3F)c12 (some centres unmarked)   ≥ 8.70
 3  CCc1c(F)ccc2cc(O)cc(-c3ncc4c(N5CCCC6(C5)NC(=O)NC6=O)nc(OC[C@@]56CCCN5C[C@H](F)C6)nc4c3F)c12 (some centres unmarked)   ≥ 8.70
 4  NS(=O)(=O)CC1CCCN(c2nc(OC[C@@]34CCCN3C[C@H](F)C4)nc3c(F)c(-c4cc(O)cc5ccc(F)c(Cl)c45)ncc23)C1 (some centres unmarked)     8.40
 5  CSc1cccc2cccc(-c3ncc4c(N5CCCC6(CC(=O)N6)C5)nc(OCC56CCCN5CCC6)nc4c3F)c12 (centres unmarked)     6.83
 6  CCc1c(F)ccc2cc(O)cc(-c3ncc4c(NCC5CCC(=O)N5)nc(OC[C@@]56CCCN5C[C@H](F)C6)nc4c3F)c12 (some centres unmarked)     8.30
 7  Fc1c(-c2cccc3cccc(F)c23)ncc2c(NCCCn3cnnn3)nc(OCC34CCCN3CCC4)nc12     4.81
 8  O=C1NC(=O)C2(CCCN(c3nc(OC[C@@]45CCCN4C[C@H](F)C5)nc4c(F)c(-c5cc(O)cc6ccc(F)c(F)c56)ncc34)C2)N1 (some centres unmarked)   ≥ 8.70
 9  CCc1c(F)ccc2cc(O)cc(-c3ncc4c(N5CCC[C@]6(CC(=O)N6)C5)nc(OCC5(CN6CCCC6)CC5)nc4c3F)c12   ≥ 8.70
10  CCc1c(F)ccc2cc(O)cc(-c3ncc4c(N5CCC[C@@](C)(O)C5)nc(OC[C@]56CCCN5[C@@H](CO)CC6)nc4c3F)c12   ≥ 8.70
11  Cc1cc2n(n1)CCCN(c1nc(OCC34CCCN3CCC4)nc3c(F)c(-c4cccc5cccc(F)c45)ncc13)C2     5.10
12  CN(C)C(=O)c1cc2n(n1)CCCN(c1nc(OC[C@@]34CCCN3C[C@H](F)C4)nc3c(F)c(-c4cc(O)cc5ccc(F)c(Cl)c45)ncc13)C2   ≥ 8.70
13  CCc1c(F)ccc2cc(O)cc(-c3ncc4c(N5CCC[C@]6(CC(=O)N6)C5)nc(OC[C@@]56CCCN5C[C@H](F)C6)nc4c3F)c12 (single isomer, unassigned)   ≥ 8.70
14  CCc1c(F)ccc2cc(O)cc(-c3ncc4c(N5C[C@H](O)C[C@H](F)C5)nc(OC[C@@]56CCCN5C[C@H](F)C6)nc4c3F)c12   ≥ 8.70
15  CCc1c(F)ccc2cc(O)cc(-c3ncc4c(N5CCCn6nc(C(=O)N7CCOCC7)cc6C5)nc(OC[C@@]56CCCN5C[C@H](F)C6)nc4c3F)c12   ≥ 8.70
16  CCc1c(F)ccc2cc(O)cc(-c3ncc4c(N5CC(O)CC(F)(F)C5)nc(OC[C@@]56CCCN5C[C@H](F)C6)nc4c3F)c12 (some centres unmarked)   ≥ 8.70

---

test system: pERK in HCT116 cells; experiment: Inhibition of KRas phosphorylation of ERK (Cisbio HTRF pERK assay); conditions: Homo sapiens, HCT-116, read-out: Inhibition (HTRF IC50) of KRas-mediated Phosphorylation of ERK, HCT116
pIC50: −log10 of the molar value.
As shown below, each of these compounds has a reported pIC50 value.
readout.name: pIC50

                                   compound           target_desc  readout_name  reading
0  O=C1NC(=O)C2(CCCN(c3nc(OC[C@@]45CCCN4C[C@H](F)C5)nc4c(F)c(-c5cc(O)cc6ccc(F)c(F)c56)ncc34)C2)N1 (stereo partly drawn)  pERK in HCT116 cells         pIC50     5.75
1  C#Cc1c(F)ccc2cc(O)cc(-c3ncc4c(N5CC6C(=O)NC(=O)C6C5)nc(OC[C@@]56CCCN5C[C@H](F)C6)nc4c3F)c12 (stereo partly drawn)  pERK in HCT116 cells         pIC50     5.96
2  CCc1c(F)ccc2cc(O)cc(-c3ncc4c(N5CCCn6nc(C(=O)NC(C)C)cc6C5)nc(OC[C@@]56CCCN5C[C@H](F)C6)nc4c3F)c12  pERK in HCT116 cells         pIC50     5.87
